molecular target: αvβ1 (Homo sapiens, UniProt P05556+P06756); construct: host or cells: A549; experiment: Cell adhesion assay, A549-αvβ1 (LAP-b1); assay type: cell-based; conditions: cell adhesion, A549-αvβ1 cells, ligand LAP-b1, 2 mM MgCl2; mean pIC50
Sequence (P06756 31-889 limits assumed): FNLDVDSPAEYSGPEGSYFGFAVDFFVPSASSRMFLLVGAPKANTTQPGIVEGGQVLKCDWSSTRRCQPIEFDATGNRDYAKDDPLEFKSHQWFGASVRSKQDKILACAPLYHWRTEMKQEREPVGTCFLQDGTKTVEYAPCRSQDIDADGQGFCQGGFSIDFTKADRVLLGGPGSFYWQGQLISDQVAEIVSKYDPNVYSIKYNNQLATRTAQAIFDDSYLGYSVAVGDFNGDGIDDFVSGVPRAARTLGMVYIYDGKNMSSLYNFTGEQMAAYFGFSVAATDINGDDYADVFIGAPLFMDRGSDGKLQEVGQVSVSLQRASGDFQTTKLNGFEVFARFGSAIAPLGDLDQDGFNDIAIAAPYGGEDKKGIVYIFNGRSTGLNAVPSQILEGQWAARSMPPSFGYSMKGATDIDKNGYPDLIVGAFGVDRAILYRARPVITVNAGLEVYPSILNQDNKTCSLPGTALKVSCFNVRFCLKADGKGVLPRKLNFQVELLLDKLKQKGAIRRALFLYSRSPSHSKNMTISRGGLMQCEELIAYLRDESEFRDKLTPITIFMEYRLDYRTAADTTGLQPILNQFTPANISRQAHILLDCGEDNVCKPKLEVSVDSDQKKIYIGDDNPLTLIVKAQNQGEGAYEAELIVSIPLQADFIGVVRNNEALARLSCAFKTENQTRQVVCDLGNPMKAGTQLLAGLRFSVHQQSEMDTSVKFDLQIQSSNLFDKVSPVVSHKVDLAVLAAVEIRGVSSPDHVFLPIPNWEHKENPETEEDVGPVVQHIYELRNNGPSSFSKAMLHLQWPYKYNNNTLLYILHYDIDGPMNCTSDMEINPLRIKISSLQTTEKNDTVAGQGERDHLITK
Sequence (P06756 891-1048 partner limits assumed): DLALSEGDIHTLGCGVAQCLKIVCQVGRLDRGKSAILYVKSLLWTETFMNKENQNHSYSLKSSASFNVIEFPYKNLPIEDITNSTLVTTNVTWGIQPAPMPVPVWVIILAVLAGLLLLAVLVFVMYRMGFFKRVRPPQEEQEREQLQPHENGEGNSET
Sequence (P05556 21-798): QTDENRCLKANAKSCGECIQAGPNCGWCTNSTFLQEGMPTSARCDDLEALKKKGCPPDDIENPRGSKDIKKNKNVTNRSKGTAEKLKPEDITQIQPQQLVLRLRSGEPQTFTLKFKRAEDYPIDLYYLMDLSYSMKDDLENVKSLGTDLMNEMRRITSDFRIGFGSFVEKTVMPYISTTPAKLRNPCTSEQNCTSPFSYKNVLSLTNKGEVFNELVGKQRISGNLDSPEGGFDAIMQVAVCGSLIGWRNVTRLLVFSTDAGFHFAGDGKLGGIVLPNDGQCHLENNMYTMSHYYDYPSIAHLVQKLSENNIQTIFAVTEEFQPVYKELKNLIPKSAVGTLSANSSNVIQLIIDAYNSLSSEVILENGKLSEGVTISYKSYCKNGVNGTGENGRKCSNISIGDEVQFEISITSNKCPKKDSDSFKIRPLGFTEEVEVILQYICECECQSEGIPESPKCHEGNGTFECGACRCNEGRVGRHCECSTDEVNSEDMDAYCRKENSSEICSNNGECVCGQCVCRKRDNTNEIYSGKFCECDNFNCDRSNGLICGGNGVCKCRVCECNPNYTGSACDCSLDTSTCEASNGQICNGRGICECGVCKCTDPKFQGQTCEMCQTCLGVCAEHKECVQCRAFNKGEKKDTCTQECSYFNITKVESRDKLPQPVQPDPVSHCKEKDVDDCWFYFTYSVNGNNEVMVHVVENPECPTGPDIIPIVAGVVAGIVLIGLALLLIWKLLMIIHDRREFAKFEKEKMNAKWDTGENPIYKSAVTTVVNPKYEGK
Structures can show the parent of a compound that is named as a salt.
quantityName: pIC50
Recall that pIC50 is obtained by taking minus log10 of the concentration measured in molar.

QUERY: Fill in pIC50 for O=C(O)C[C@H](CN1CC[C@@](F)(CCc2ccc3c(n2)NCCC3)C1)c1cccc(N2CCOCC2)c1 [Example 3, maleate salt] tested with αvβ1 (Homo sapiens, UniProt P05556+P06756).
RESULT: 7.10

QUERY: Fill in pIC50 for O=C(O)C[C@H](CN1CC[C@@](F)(CCc2ccc3c(n2)NCCC3)C1)c1cccc(N2CCOCC2)c1 [Example 4, fumarate salt] tested with αvβ1 (Homo sapiens, UniProt P05556+P06756).
RESULT: 7.00
